// reported Sugarbeets plant response rating per item
Tested on: sugar beet
Assay: Test B pre/postemergence sugar beet
Format: in vivo, Beta vulgaris
Conditions: Postemergence, Rate 125 g/ha; scale of 0 to 10 where 0 is no effect and 10 is complete control
// return just the number, without any unit appended

>>> observed("COP(=O)(CCn1c(=O)on(C(=O)N(c2ccc(F)cc2)C(C)C)c1=O)OC")
0

Task item: Tell me reported Sugarbeets plant response rating for `Cc1ccccc1-n1c(=O)on(C(=O)N(c2cccc(F)c2F)C(C)C)c1=O` , tested with sugar beet.
Reply: 0

Task item: Tell me reported Sugarbeets plant response rating for `Cc1nsc(C)c1-n1c(=O)on(C(=O)N(c2ccc(F)cc2F)C(C)C)c1=O` , tested with sugar beet.
Reply: 0

Task item: Tell me reported Sugarbeets plant response rating for `CCN(Cc1ccccc1)C(=O)n1oc(=O)n(C(C)C)c1=O` , tested with sugar beet.
Reply: 0

====

Tested on: bamyardgrass
Assay: Test B flood test barnyardgrass
Format: in vivo, Echinochloa crus-galli
Conditions: Rate 500 g/ha; Pre-emergence; flood test species; scale 0 to 10 (0 no effect, 10 complete control)
// reported Barnyardgrass plant response rating per item
// return just the number, without any unit appended

Some solved entries appear below for comparison.
>>> observed("CC(C)N(C(=O)n1oc(=O)n(C2CC3CCC2C3)c1=O)c1ccc(F)cc1 (stereo not drawn)")
0
>>> observed("CC(C)N(C(=O)n1oc(=O)n(C2CCC2)c1=O)c1ccc(F)cc1F")
0
>>> observed("CC(C)N(C(=O)n1oc(=O)n(Cc2ccccn2)c1=O)c1ccc(F)cc1")
0
>>> observed("CC(C)Cn1c(=O)on(C(=O)N(c2ccccc2)C(C)C)c1=O")
9
>>> observed("CCN(C(=O)n1oc(=O)n(C(C)C)c1=O)C1CCCCC1")
0

Task item: Tell me reported Barnyardgrass plant response rating for `Cc1cccc(C(C)(C)C)c1-n1c(=O)on(C(=O)N(c2ccccc2)C(C)C)c1=O` , tested with bamyardgrass.
Reply: 0

Task item: Tell me reported Barnyardgrass plant response rating for `CCc1cccc(CC)c1-n1c(=O)on(C(=O)N(c2ccc(F)cc2)C(C)C)c1=O` , tested with bamyardgrass.
Reply: 4

Task item: Tell me reported Barnyardgrass plant response rating for CC(C)N(C(=O)n1oc(=O)n(CC2CCOC2)c1=O)c1ccc(F)cc1 (stereo not drawn) , tested with bamyardgrass.
Reply: 0

Task item: Tell me reported Barnyardgrass plant response rating for CCOC(=O)C(C)N(C(=O)n1oc(=O)n(-c2ccccc2C)c1=O)c1ccc(F)cc1 (stereo not drawn) , tested with bamyardgrass.
Reply: 0

====

Tested on: surinam grass
Assay: Test B pre/postemergence surinam grass
Assay type: in vivo, Brachiaria decumbens
Settings: Preemergence, Rate 500 g/ha; scale of 0 to 10 where 0 is no effect and 10 is complete control
// reported Plant response rating, B. signalgrass per item
// return just the number, without any unit appended

Task item: I have this compound here, `COC(=O)C=CCn1c(=O)on(C(=O)N(c2ccc(F)cc2)C(C)C)c1=O` , and I need its recorded Plant response rating, B. signalgrass.
Reply: 0

Task item: I have this compound here, `CC(C)N(C(=O)n1oc(=O)n(COCc2ccccc2)c1=O)c1ccc(F)cc1` , and I need its recorded Plant response rating, B. signalgrass.
Reply: 3

Task item: I have this compound here, `CC(C)N(C(=O)n1oc(=O)n(CCC2OCCO2)c1=O)c1ccc(F)cc1` , and I need its recorded Plant response rating, B. signalgrass.
Reply: 9
